- Study system: Estrogen receptor beta (Homo sapiens)
- Sequence (Q92731 whole entry): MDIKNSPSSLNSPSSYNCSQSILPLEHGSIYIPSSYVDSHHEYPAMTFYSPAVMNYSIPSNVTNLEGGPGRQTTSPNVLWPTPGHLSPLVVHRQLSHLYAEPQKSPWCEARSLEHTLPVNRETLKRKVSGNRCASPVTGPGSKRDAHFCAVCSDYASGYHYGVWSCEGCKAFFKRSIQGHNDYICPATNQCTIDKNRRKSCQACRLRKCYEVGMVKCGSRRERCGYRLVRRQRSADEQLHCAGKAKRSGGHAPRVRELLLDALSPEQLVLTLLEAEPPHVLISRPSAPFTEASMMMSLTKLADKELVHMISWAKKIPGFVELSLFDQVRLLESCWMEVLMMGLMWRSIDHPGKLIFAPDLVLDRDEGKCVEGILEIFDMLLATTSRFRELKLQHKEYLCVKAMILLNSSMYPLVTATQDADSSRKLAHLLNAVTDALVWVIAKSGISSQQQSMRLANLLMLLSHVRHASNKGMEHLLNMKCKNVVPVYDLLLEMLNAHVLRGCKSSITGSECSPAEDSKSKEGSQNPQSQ
- Applied conditions: cos-1
- Description: In vitro agonist activity for estrogen receptor beta expressed in COS-1 cells
Assay metric: EC50

1. CC1=CC[C@@H]2C[C@H]1[C@H](c1ccc(O)c(C)c1)OC2(C)C (stereo in doubt) | 318 nM

---

- Study system: Estrogen receptor (Homo sapiens)
- Sequence (P03372 whole entry): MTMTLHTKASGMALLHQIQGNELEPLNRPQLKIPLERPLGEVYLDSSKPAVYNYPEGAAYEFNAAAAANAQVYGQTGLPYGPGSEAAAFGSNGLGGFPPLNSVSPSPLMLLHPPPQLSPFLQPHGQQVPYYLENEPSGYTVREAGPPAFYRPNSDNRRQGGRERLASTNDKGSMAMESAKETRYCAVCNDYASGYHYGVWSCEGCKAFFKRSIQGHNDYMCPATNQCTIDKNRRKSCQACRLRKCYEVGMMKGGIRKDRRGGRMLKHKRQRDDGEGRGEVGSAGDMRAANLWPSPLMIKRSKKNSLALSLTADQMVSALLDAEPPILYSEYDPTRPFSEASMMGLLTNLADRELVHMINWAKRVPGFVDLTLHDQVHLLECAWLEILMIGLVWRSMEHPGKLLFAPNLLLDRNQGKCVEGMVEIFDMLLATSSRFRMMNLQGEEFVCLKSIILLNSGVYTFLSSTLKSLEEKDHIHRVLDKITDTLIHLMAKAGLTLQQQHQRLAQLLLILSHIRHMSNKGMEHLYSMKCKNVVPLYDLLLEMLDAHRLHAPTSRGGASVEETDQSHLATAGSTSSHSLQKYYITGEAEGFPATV
Catalogue of EC50 values
Assay metric: EC50 (nM)

1. CC1=CC[C@@]2(CO)CO[C@@H](c3ccc(O)cc3Cl)[C@@H]1C2 (racemic) | 11
2. CC1=CC[C@@]2(CO)CO[C@@H](c3ccc(O)c(F)c3)[C@@H]1C2 (racemic) | 4.6
3. CC1=CC[C@@]2(CO)CO[C@@H](c3ccc(O)cc3)[C@]1(C)C2 (racemic) | 203
4. CC1=CC(C)(C)[C@@]2(O)CO[C@@H](c3ccc(O)cc3)[C@@H]1C2 (racemic) | 141
5. CC1=CC[C@@]2(CO)CO[C@@H](c3cc(C)c(O)c(C)c3)[C@@H]1C2 (racemic) | 743
6. CC1=CC[C@@H]2C[C@H]1[C@H](c1ccc(O)c(C)c1)OC2(C)C (stereo in doubt) | 218
7. CC1=CC[C@@]2(O)CO[C@@H](c3ccc(O)cc3)[C@@H]1C2(C)C (racemic) | 59
8. CC1=CC[C@@]2(CO)CO[C@@H](c3ccc(O)cc3Cl)[C@@H]1C2 (stereo in doubt; (-)-26) | 18
9. CC1=CC[C@]2(O)C[C@H]1[C@H](c1ccc(O)c(F)c1)OC2(C)C (racemic) | 0.6
10. CC1=CC[C@@]2(CO)CO[C@@H](c3ccc(O)c(Br)c3)[C@@H]1C2 (racemic) | 336
11. CC1=CC(C)(C)[C@@]2(O)CO[C@@H](c3ccc(O)cc3Cl)[C@@H]1C2 (racemic) | 21
12. CC1=CC[C@@]2(CO)CO[C@@H](c3ccc(O)cc3Cl)[C@@H]1C2 (stereo in doubt; (+)-25) | 138
13. CC1=CC[C@@]2(CO)CO[C@@H](c3ccc(O)cc3O)[C@@H]1C2 (racemic) | 173
14. CC1=CC[C@@H]2C[C@H]1[C@H](c1ccc(O)c(C)c1)OC2(C)C (stereo in doubt; (+)-32) | 143
15. COc1cc([C@@H]2OC[C@]3(CO)CC=C(C)[C@H]2C3)ccc1O (racemic) | 1980
